Numbers sourced from paper PMC12028158.

Provide the recorded GI50 for the entries that follow.
- System: SR
- assay details: NCI60 five-dose screen
- Type: cell-based
- test conditions: Homo sapiens
One number for each entry, in nM.

Below are worked cases with known answers.
INSERT INTO assay_data (compound, target_under_test, recorded_measurement) VALUES
  ('CC[C@]12C=CCN3CC[C@@]4(c5ccc(OC)cc5N(C)[C@H]4[C@@](O)(C(=O)OC)[C@@H]1OC(=O)CCCC[P+](c1ccc(C)cc1)(c1ccc(C)cc1)c1ccc(C)cc1)[C@@H]32 [10a]', 'SR', 360),
  ('CCC12C=CCN3CCC4(c5ccc(OC)cc5N(C)C4C(O)(C(=O)OC)C1OC(=O)CCC[P+](c1ccc(C)cc1)(c1ccc(C)cc1)c1ccc(C)cc1)C32 (stereo not shown) [9a]', 'SR', 281),
  ('CC[C@]12C=CCN3CC[C@@]4(c5ccc(OC)cc5N(C)[C@H]4[C@@](O)(C(=O)OC)[C@@H]1OC(=O)CCCC[P+](C1CCCCC1)(C1CCCCC1)C1CCCCC1)[C@@H]32 [10d]', 'SR', 1390);

Quick one: give me GI50 for each item below, same order please.
1. CC[C@]12C=CCN3CC[C@@]4(c5ccc(OC)cc5N(C)[C@H]4[C@@](O)(C(=O)OC)[C@@H]1OC(=O)CCC[P+](C1CCCCC1)(C1CCCCC1)C1CCCCC1)[C@@H]32 [9d]
2. CC[C@]12C=CCN3CC[C@@]4(c5ccc(OC)cc5N(C)[C@H]4[C@@](O)(C(=O)OC)[C@@H]1OC(=O)CCC[P+](c1ccccc1)(c1ccccc1)c1ccccc1OC)[C@@H]32 [9f]

1: 1350; 2: 221

Quick one: give me GI50 for each item below, same order please.
1. CC[C@]12C=CCN3CC[C@@]4(c5ccc(OC)cc5N(C)[C@H]4[C@@](O)(C(=O)OC)[C@@H]1OC(=O)CCC[P+](c1ccc(F)cc1)(c1ccc(F)cc1)c1ccc(F)cc1)[C@@H]32 [9c]
2. CC[C@]12C=CCN3CC[C@@]4(c5ccc(OC)cc5N(C)[C@H]4[C@@](O)(C(=O)OC)[C@@H]1OC(=O)CCCC[P+](c1ccc(OC)cc1)(c1ccc(OC)cc1)c1ccc(OC)cc1)[C@@H]32 [10b]

1: 7450; 2: 428

###

- Test system: HL-60(TB)
- assay details: NCI60 five-dose screen
- Type: cell-based
- test conditions: Homo sapiens, HL-60
Provide the recorded GI50 for the entries that follow.
Answers are plain numbers, in nM.

Quick one: give me GI50 for each item below, same order please.
1. CC[C@]12C=CCN3CC[C@@]4(c5ccc(OC)cc5N(C)[C@H]4[C@@](O)(C(=O)OC)[C@@H]1OC(=O)CCC[P+](c1ccccc1)(c1ccccc1)c1ccccc1OC)[C@@H]32
2. CC[C@]12C=CCN3CC[C@@]4(c5ccc(OC)cc5N(C)[C@H]4[C@@](O)(C(=O)OC)[C@@H]1OC(=O)CCCC[P+](c1ccc(OC)cc1)(c1ccc(OC)cc1)c1ccc(OC)cc1)[C@@H]32 [10b]
3. CC[C@]12C=CCN3CC[C@@]4(c5ccc(OC)cc5N(C)[C@H]4[C@@](O)(C(=O)OC)[C@@H]1OC(=O)CCCC[P+](c1ccc(C)cc1)(c1ccc(C)cc1)c1ccc(C)cc1)[C@@H]32 [10a]

[170, 234, 221]
